This collection of values is drawn from patent US10081665B2.

# tgt: HLA-A*02:01 (Homo sapiens, UniProt P04439, D140Y/D185E/D98H/E176V/E277Q/G131W/G231S/I119V/I121R/I166T/I218V/L300P/L318F/N151K/N90K/P208A/P217A/Q86G/Q94H/R138H/R169H/T345S)
# protocol_details: MHC binding assay (UV-ligand exchange, beta2m ELISA)
# experimental_conditions: binding to HLA-A*02:01, β2m ELISA
readout_name: Peptide exchange (MHC class I binding score, peptide exchange yield)

Examples with answers:
275 (AVPPPPSSV; listed as Homo sapiens) [compound 275]: ++ (≥20% = ++)
162 (GLLGNLLTSL; listed as Homo sapiens) [compound 162]: +++ (≥50 = +++)
133 (FLDGRPLTL; listed as Homo sapiens) [compound 133]: ++ (≥20% = ++)
200 (IMPTFDLTKV; listed as Homo sapiens) [compound 200]: +++ (≥50 = +++)

Next substance, please.
Return value of Peptide exchange (MHC class I binding score, peptide exchange yield) for input 139 (IILENIQSL; listed as Homo sapiens) [compound 139] , no commentary.
+++ (≥50 = +++)

----------
# tgt: HLA-A*02:01 (Homo sapiens, UniProt P04439, D140Y/D185E/D98H/E176V/E277Q/G131W/G231S/I119V/I121R/I166T/I218V/L300P/L318F/N151K/N90K/P208A/P217A/Q86G/Q94H/R138H/R169H/T345S)
# protocol_details: MHC binding assay (UV-ligand exchange, beta2m ELISA)
# experimental_conditions: binding to HLA-A*02:01, β2m ELISA
# From the text: Candidate peptides for T cell based therapies according to the present invention were further tested for their MHC binding capacity (affinity). The individual peptide-MHC complexes were produced by UV-ligand exchange, where a UV-sensitive peptide is cleaved upon UV-irradiation, and exchanged with the peptide of interest as analyzed. Only peptide candidates that can effectively bind and stabilize the peptide-receptive MHC molecules prevent dissociation of the MHC complexes. […]
readout_name: Peptide exchange (MHC class I binding score, peptide exchange yield)

33 (TLDRNSLYV; listed as Homo sapiens) [compound 33]: ++ (≥20% = ++)
42 (KQMSISTGL; listed as Homo sapiens) [compound 42]: ++ (≥20% = ++)
217 (LLWPSSVPA; listed as Homo sapiens) [compound 217]: +++ (≥50 = +++)
126 (QLREAFEQL; listed as Homo sapiens) [compound 126]: +++ (≥50 = +++)
27 (GLLGKVTSV; listed as Homo sapiens) [compound 27]: +++ (≥50 = +++)

Return value of Peptide exchange (MHC class I binding score, peptide exchange yield) for input 63 (KLLPMVIQL; listed as Homo sapiens) [compound 63] , no commentary.
+++ (≥50 = +++)

Return value of Peptide exchange (MHC class I binding score, peptide exchange yield) for input 236 (KMSELQTYV; listed as Homo sapiens) [compound 236] , no commentary.
+++ (≥50 = +++)

Return value of Peptide exchange (MHC class I binding score, peptide exchange yield) for input 222 (LLTGVFAQL; listed as Homo sapiens) [compound 222] , no commentary.
++ (≥20% = ++)

----------
# tgt: HLA-A*02:01 (Homo sapiens, UniProt P04439, D140Y/D185E/D98H/E176V/E277Q/G131W/G231S/I119V/I121R/I166T/I218V/L300P/L318F/N151K/N90K/P208A/P217A/Q86G/Q94H/R138H/R169H/T345S)
# protocol_details: MHC binding assay (UV-ligand exchange, beta2m ELISA)
# experimental_conditions: binding to HLA-A*02:01, β2m ELISA
readout_name: Peptide exchange (MHC class I binding score, peptide exchange yield)

182 (GLQDGFQITV; listed as Homo sapiens) [compound 182]: +++ (≥50 = +++)
230 (KLLNMIFSI; listed as Homo sapiens) [compound 230]: +++ (≥50 = +++)
263 (SIIEYLPTL; listed as Homo sapiens) [compound 263]: +++ (≥50 = +++)
268 (SLDKDIVAL; listed as Homo sapiens) [compound 268]: ++ (≥20% = ++)
61 (ALYPKEITL; listed as Homo sapiens) [compound 61]: +++ (≥50 = +++)
36 (TVLQELINV; listed as Homo sapiens) [compound 36]: +++ (≥50 = +++)
285 (MLLDTVQKV; listed as Homo sapiens) [compound 285]: +++ (≥50 = +++)

Next substance, please.
Return value of Peptide exchange (MHC class I binding score, peptide exchange yield) for input 52 (TIGIPFPNV; listed as Homo sapiens) [compound 52] , no commentary.
++ (≥20% = ++)
